- Tested on: Mast cell (Rattus norvegicus)
- Assay notes: Histamine release in mast cells by ELISA
Square brackets hold non-standard residues; d marks the D form. Peptide text beside a SMILES is read from it. * marks the point of attachment. dPhe(4-NHCONH2) = NC(=O)Nc1ccc(C[C@@H](N)C(=O)O)cc1; Dihydroorotyl(S) = O=C1C[C@@H](C(=O)*)NC(=O)N1; dPhe(4-Cl) = N[C@H](Cc1ccc(Cl)cc1)C(=O)O; Phe(4-NH2) = Nc1ccc(C[C@H](N)C(=O)O)cc1; d2Nal = N[C@H](Cc1ccc2ccccc2c1)C(=O)O; Lys(iPr) = CC(C)NCCCC[C@H](N)C(=O)O; d3Pal = N[C@H](Cc1cccnc1)C(=O)O
Reported EC50 values for the following compounds.

// below: answered compounds
INSERT INTO results (compound, measured_result) VALUES
  ('CC(=O)Nc1ccc(C[C@H](NC(=O)[C@H](CO)NC(=O)[C@@H](Cc2cccnc2)NC(=O)[C@@H](Cc2ccc(Cl)cc2)NC(=O)[C@@H](Cc2ccc3ccccc3c2)NC(C)=O)C(=O)N[C@H](Cc2ccc(NC(C)=O)cc2)C(=O)N[C@@H](CC(C)C)C(=O)N[C@@H](CCCCNC(C)C)C(=O)N2CCC[C@H]2C(=O)N[C@H](C)C(N)=O)cc1', '461 µg/mL'),
  ('CCOCCOCCNC(=O)Nc1ccc(C[C@H](NC(=O)[C@H](CO)NC(=O)[C@@H](Cc2cccnc2)NC(=O)[C@@H](Cc2ccc(Cl)cc2)NC(=O)[C@@H](Cc2ccc3ccccc3c2)NC(=O)NCCOCCOCC)C(=O)N[C@H](Cc2ccc(NC(N)=O)cc2)C(=O)N[C@@H](CC(C)C)C(=O)N[C@@H](CCCCNC(C)C)C(=O)N2CCC[C@H]2C(=O)N[C@H](C)C(N)=O)cc1', '> 1000 µg/mL');

Q: Quick check: EC50 of CONC(=O)Nc1ccc(C[C@@H](NC(=O)[C@H](Cc2ccc(NC(=O)NOC)cc2)N(C)C(=O)[C@H](CO)NC(=O)[C@@H](Cc2cccnc2)NC(=O)[C@@H](Cc2ccc(Cl)cc2)NC(=O)[C@@H](Cc2ccc3ccccc3c2)NC(C)=O)C(=O)N[C@@H](CC(C)C)C(=O)N[C@@H](CCCCNC(C)C)C(=O)N2CCC[C@H]2C(=O)N[C@H](C)C(N)=O)cc1 ?
A: 43.1 µg/mL

Q: Recorded EC50 of CC(=O)N[C@H](Cc1ccc2ccccc2c1)C(=O)N[C@H](Cc1ccc(Cl)cc1)C(=O)N[C@H](Cc1cccnc1)C(=O)N[C@@H](CO)C(=O)N[C@@H](Cc1ccc(NC(=O)[C@@H]2CC(=O)NC(=O)N2)cc1)C(=O)N[C@H](Cc1ccc(NC(N)=O)cc1)C(=O)N[C@@H](CC(C)C)C(=O)N[C@@H](CCCCNC(C)C)C(=O)N1CCC[C@H]1C(=O)N[C@H](C)C(N)=O [DEGARELIX] (Ac-[d2Nal][dPhe(4-Cl)][d3Pal]S[Phe(4-NH2)](Dihydroorotyl(S))[dPhe(4-NHCONH2)]L[Lys(iPr)]P[dA]-NH2) , please.
A: > 1000 µg/mL

====

- Test target: Gonadotropin-releasing hormone receptor (Homo sapiens)
- Sequence (P30968 whole entry): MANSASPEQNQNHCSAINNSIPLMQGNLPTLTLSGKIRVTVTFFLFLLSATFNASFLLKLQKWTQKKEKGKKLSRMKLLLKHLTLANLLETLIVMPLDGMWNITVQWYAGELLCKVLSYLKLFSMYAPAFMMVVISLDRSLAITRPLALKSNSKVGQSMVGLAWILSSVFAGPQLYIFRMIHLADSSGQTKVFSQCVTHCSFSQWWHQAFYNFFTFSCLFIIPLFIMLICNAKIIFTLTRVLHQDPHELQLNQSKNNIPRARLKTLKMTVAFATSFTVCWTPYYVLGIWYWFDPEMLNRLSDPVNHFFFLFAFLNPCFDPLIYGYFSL
- Assay notes: Antagonist activity at human GnRH receptor expressed in HEK293 cells as inhibition of GnRH-induced LH secretion by reporter gene assay
Square brackets hold non-standard residues; d marks the D form. Peptide text beside a SMILES is read from it. * marks the point of attachment. dPhe(4-NHCONH2) = NC(=O)Nc1ccc(C[C@@H](N)C(=O)O)cc1; dPhe(4-NH2) = Nc1ccc(C[C@@H](N)C(=O)O)cc1; dPhe(4-Cl) = N[C@H](Cc1ccc(Cl)cc1)C(=O)O; Phe(4-NH2) = Nc1ccc(C[C@H](N)C(=O)O)cc1; d2Nal = N[C@H](Cc1ccc2ccccc2c1)C(=O)O; Lys(iPr) = CC(C)NCCCC[C@H](N)C(=O)O; d3Pal = N[C@H](Cc1cccnc1)C(=O)O; Methoxycarbamoyl = CONC(=O)*; Butyryl = CCCC(=O)*
Measurement name: IC50

Previously resolved entries follow.
INSERT INTO measurements (compound, measured_result) VALUES
  ('CONC(=O)Nc1ccc(C[C@H](NC(=O)[C@H](CO)NC(=O)[C@@H](Cc2cccnc2)NC(=O)[C@@H](Cc2ccc(Cl)cc2)NC(=O)[C@@H](Cc2ccc3ccccc3c2)NC(C)=O)C(=O)N[C@H](Cc2ccc(NC(=O)NOC)cc2)C(=O)N[C@@H](CC(C)C)C(=O)N[C@@H](CCCCNC(C)C)C(=O)N2CCC[C@H]2C(=O)N[C@H](C)C(N)=O)cc1', '0.91 nM'),
  ('CCCC(=O)N[C@H](Cc1ccc2ccccc2c1)C(=O)N[C@H](Cc1ccc(Cl)cc1)C(=O)N[C@H](Cc1cccnc1)C(=O)N[C@@H](CO)C(=O)N[C@@H](Cc1ccc(NC(=O)NOC)cc1)C(=O)N[C@H](Cc1ccc(NC(=O)NOC)cc1)C(=O)N[C@@H](CC(C)C)C(=O)N[C@@H](CCCCNC(C)C)C(=O)N1CCC[C@H]1C(=O)N[C@H](C)C(N)=O (Butyryl-[d2Nal][dPhe(4-Cl)][d3Pal]S[Phe(4-NH2)](Methoxycarbamoyl)[dPhe(4-NH2)](Methoxycarbamoyl)L[Lys(iPr)]P[dA]-NH2)', '1.37 nM'),
  ('CC(=O)N[C@H](Cc1ccc2ccccc2c1)C(=O)N[C@H](Cc1ccc(Cl)cc1)C(=O)N[C@H](Cc1cccnc1)C(=O)N[C@@H](CO)C(=O)N[C@@H](Cc1ccc(NC(=O)[C@@H]2CC(=O)NC(=O)N2)cc1)C(=O)N[C@H](Cc1ccc(NC(=O)NO)cc1)C(=O)N[C@@H](CC(C)C)C(=O)N[C@@H](CCCCNC(C)C)C(=O)N1CCC[C@H]1C(=O)N[C@H](C)C(N)=O', '0.8 nM'),
  ('CONC(=O)Nc1ccc(C[C@H](NC(=O)[C@H](CO)NC(=O)[C@@H](Cc2cccnc2)NC(=O)[C@@H](Cc2ccc(Cl)cc2)NC(=O)[C@@H](Cc2ccc3ccccc3c2)NC(C)=O)C(=O)N[C@H](Cc2ccc(NC(N)=O)cc2)C(=O)N[C@@H](CC(C)C)C(=O)N[C@@H](CCCCNC(C)C)C(=O)N2CCC[C@H]2C(=O)N[C@H](C)C(N)=O)cc1 (Ac-[d2Nal][dPhe(4-Cl)][d3Pal]S[Phe(4-NH2)](Methoxycarbamoyl)[dPhe(4-NHCONH2)]L[Lys(iPr)]P[dA]-NH2)', '0.6 nM'),
  ('CCOCCOCCNC(=O)Nc1ccc(C[C@H](NC(=O)[C@H](CO)NC(=O)[C@@H](Cc2cccnc2)NC(=O)[C@@H](Cc2ccc(Cl)cc2)NC(=O)[C@@H](Cc2ccc3ccccc3c2)NC(C)=O)C(=O)N[C@H](Cc2ccc(NC(=O)NCCOCCOCC)cc2)C(=O)N[C@@H](CC(C)C)C(=O)N[C@@H](CCCCNC(C)C)C(=O)N2CCC[C@H]2C(=O)N[C@H](C)C(N)=O)cc1', '2.04 nM');

Q: State the recorded IC50 for this entry: CCCC(=O)N[C@H](Cc1ccc2ccccc2c1)C(=O)N[C@H](Cc1ccc(Cl)cc1)C(=O)N[C@H](Cc1cccnc1)C(=O)N[C@@H](CO)C(=O)N[C@@H](Cc1ccc(NC(=O)[C@@H]2CC(=O)NC(=O)N2)cc1)C(=O)N[C@H](Cc1ccc(NC(=O)NOC)cc1)C(=O)N[C@@H](CC(C)C)C(=O)N[C@@H](CCCCNC(C)C)C(=O)N1CCC[C@H]1C(=O)N[C@H](C)C(N)=O
A: 2.13 nM

Q: Find the recorded IC50 belonging to CCCC(=O)N[C@H](Cc1ccc2ccccc2c1)C(=O)N[C@H](Cc1ccc(Cl)cc1)C(=O)N[C@H](Cc1cccnc1)C(=O)N[C@@H](CO)C(=O)N[C@@H](Cc1ccc(NC(=O)NOC)cc1)C(=O)N[C@H](Cc1ccc(NC(N)=O)cc1)C(=O)N[C@@H](CC(C)C)C(=O)N[C@@H](CCCCNC(C)C)C(=O)N1CCC[C@H]1C(=O)N[C@H](C)C(N)=O and report it.
A: 1.46 nM

Q: What IC50 value was documented for this compound, CONC(=O)NCC[C@@H](NC(=O)[C@@H](Cc1ccc(Cl)cc1)NC(=O)[C@@H](Cc1ccc2ccccc2c1)NC(C)=O)C(=O)N[C@@H](CO)C(=O)N[C@@H](Cc1ccc(NC(=O)[C@@H]2CC(=O)NC(=O)N2)cc1)C(=O)N[C@H](Cc1ccc(NC(N)=O)cc1)C(=O)N[C@@H](CC(C)C)C(=O)N[C@@H](CCCCNC(C)C)C(=O)N1CCC[C@H]1C(=O)N[C@H](C)C(N)=O ?
A: 1.69 nM

Q: Could you share which IC50 value was measured for CC(=O)N[C@H](Cc1ccc2ccccc2c1)C(=O)N[C@H](Cc1ccc(Cl)cc1)C(=O)N[C@H](Cc1cccnc1)C(=O)N[C@@H](CO)C(=O)N[C@@H](Cc1ccc(NC(=O)NO)cc1)C(=O)N[C@H](Cc1ccc(NC(N)=O)cc1)C(=O)N[C@@H](CC(C)C)C(=O)N[C@@H](CCCCNC(C)C)C(=O)N1CCC[C@H]1C(=O)N[C@H](C)C(N)=O ?
A: 0.86 nM

Q: Dear colleague, I am looking for the recorded IC50 of the following compound: CCOCCOCCNC(=O)N[C@H](Cc1ccc2ccccc2c1)C(=O)N[C@H](Cc1ccc(Cl)cc1)C(=O)N[C@H](Cc1cccnc1)C(=O)N[C@@H](CO)C(=O)N[C@@H](Cc1ccc(NC(=O)NOC)cc1)C(=O)N[C@H](Cc1ccc(NC(N)=O)cc1)C(=O)N[C@@H](CC(C)C)C(=O)N[C@@H](CCCCNC(C)C)C(=O)N1CCC[C@H]1C(=O)N[C@H](C)C(N)=O
A: 2.98 nM

Q: Look up IC50: CC(=O)N[C@H](Cc1ccc2ccccc2c1)C(=O)N[C@H](Cc1ccc(Cl)cc1)C(=O)N[C@H](CCNC(=O)NO)C(=O)N[C@@H](CO)C(=O)N[C@@H](Cc1ccc(NC(=O)[C@@H]2CC(=O)NC(=O)N2)cc1)C(=O)N[C@H](Cc1ccc(NC(N)=O)cc1)C(=O)N[C@@H](CC(C)C)C(=O)N[C@@H](CCCCNC(C)C)C(=O)N1CCC[C@H]1C(=O)N[C@H](C)C(N)=O
A: 2.68 nM
